B1: NEK8 (parent)
chain: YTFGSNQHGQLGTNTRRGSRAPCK

variants of: B1; assay: protein stability index of a GFP-peptide fusion (GPS, HEK-293T) (PSI 1-6); higher = more stable; settings: c terminus: a fixed tail appended;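 further: lentivirally expressed fusions sorted by FACS into six bins by GFP to DsRed ratio, PSI derived from sequencing read proportions per bin multiplied by bin number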
The entries below are paired with their reported protein stability index.

biopolymer.sequence: YTFGSNWHGQLGTNTRRGSRAPCK
protein stability index: 2.73
--
biopolymer.sequence: YTFGSNQHQQLGTNTRRGSRAPCK
protein stability index: 3.94
--
biopolymer.sequence: YTFGSNQHGQLGTNTRSGSRAPCK
protein stability index: 3.81
--
biopolymer.sequence: YTFGSNQHGQLGTMTRRGSRAPCK
protein stability index: 3.44
--
biopolymer.sequence: YTFGSNQHGQLGTNTRRGSRAPDK
protein stability index: 4.19
--
biopolymer.sequence: YTFGSNQHGQLGTNTYRGSRAPCK
protein stability index: 3.37
--
biopolymer.sequence: YTFGSNQHGQLGTNERRGSRAPCK
protein stability index: 4.17
--
biopolymer.sequence: YTFGSNQHGLLGTNTRRGSRAPCK
protein stability index: 3.36
--
biopolymer.sequence: YTFGSNFHGQLGTNTRRGSRAPCK
protein stability index: 1.54
--
biopolymer.sequence: YTFGVNQHGQLGTNTRRGSRAPCK
protein stability index: 4.09
--
biopolymer.sequence: YTFGSNQHGQLGTNTRRGSHAPCK
protein stability index: 3.96
--
biopolymer.sequence: HTFGSNQHGQLGTNTRRGSRAPCK
protein stability index: 4.54
--
biopolymer.sequence: YTFGSNQHGCLGTNTRRGSRAPCK
protein stability index: 3.36
--
biopolymer.sequence: YTFGYNQHGQLGTNTRRGSRAPCK
protein stability index: 2.49
--
biopolymer.sequence: YTCGSNQHGQLGTNTRRGSRAPCK
protein stability index: 3.58
--
biopolymer.sequence: YTFGSNQHGQLGTNWRRGSRAPCK
protein stability index: 3.49
--
biopolymer.sequence: CTFGSNQHGQLGTNTRRGSRAPCK
protein stability index: 4.11
--
biopolymer.sequence: YTFGSNQHGQLGTNTRRGSRDPCK
protein stability index: 4.11
--
biopolymer.sequence: YTFGSNQHGQLGTNTRRGSREPCK
protein stability index: 4.32
--
biopolymer.sequence: YTFGSNQHGQLGTNTRPGSRAPCK
protein stability index: 3.75
--
biopolymer.sequence: YTFGSNQHGQLGTHTRRGSRAPCK
protein stability index: 4.07
--
biopolymer.sequence: YTFGSNQHGQLGTNTRRGSRAPCW
protein stability index: 2.59
--
biopolymer.sequence: YTFGSNQHGQLGTNTRRESRAPCK
protein stability index: 3.69
--
biopolymer.sequence: YTFGSNQHGQLGTETRRGSRAPCK
protein stability index: 3.69
--
biopolymer.sequence: YTPGSNQHGQLGTNTRRGSRAPCK
protein stability index: 2.02
--
biopolymer.sequence: YTDGSNQHGQLGTNTRRGSRAPCK
protein stability index: 4.11
--
biopolymer.sequence: YTFGSRQHGQLGTNTRRGSRAPCK
protein stability index: 4.18
--
biopolymer.sequence: YTYGSNQHGQLGTNTRRGSRAPCK
protein stability index: 3.54
--
biopolymer.sequence: YTFGSNQHGQFGTNTRRGSRAPCK
protein stability index: 3.76
--
biopolymer.sequence: YTFGSNQHGQLGTNARRGSRAPCK
protein stability index: 3.9
--
biopolymer.sequence: YTFGSNQHGQLGTNTRRGSRAPCR
protein stability index: 3.44
--
biopolymer.sequence: YTFGSNQHGQLGTNTRRGSRRPCK
protein stability index: 3.53
--
biopolymer.sequence: YTFGSNQHGQLGTNTRRGSKAPCK
protein stability index: 4.38
--
biopolymer.sequence: YTFGSNQHGQLGTNTRRGSLAPCK
protein stability index: 3.53
--
biopolymer.sequence: YTFGSNQHGQLGNNTRRGSRAPCK
protein stability index: 4.06
--
biopolymer.sequence: YTFGSNQHGQLGTRTRRGSRAPCK
protein stability index: 3.88
--
biopolymer.sequence: YTFGSNQHGQLGTNTRRGSRWPCK
protein stability index: 2.69
--
biopolymer.sequence: YTFNSNQHGQLGTNTRRGSRAPCK
protein stability index: 3.82
--
biopolymer.sequence: YTLGSNQHGQLGTNTRRGSRAPCK
protein stability index: 3.99
